target: Recombinant human Gal3 (rhGal3) (TrueBinding, #QC200361) (human, UniProt P17931 2-250); experiment: cell-based or functional assay; further: test concentration or dose not given here
quantity kind: % inhibition of TNFα secretion (%)
Kindly answer with a numeric value in %, unit omitted.

• 847.15D12 (antibody, V domains shown) VH: QVQLQQSGAELMKPGASVKISCKATGYTFTNYWIEWVKQRPGHGLEWIGEFLPGDGSSHYNEKFKGKATFTSDTSSNTAYIHLTSLTSEDSAVYYCVRDDYDSDYWAQGTTLTVSS VL: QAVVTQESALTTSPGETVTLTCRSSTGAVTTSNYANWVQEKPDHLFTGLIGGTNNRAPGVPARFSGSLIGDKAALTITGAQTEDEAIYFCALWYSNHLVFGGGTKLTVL = -153

Here is another binder to look at.
Req: Give recorded % inhibition of TNFα secretion. 849.1D2 (antibody, V domains shown) VH: QVQLKESGPVLVAPSQSLSITCTVSGFSLSSYGVHWVRQPPGKGLEWLGVIWAGGSTDYDSALMSRLSISKDNSKSQVFLKMDSLQTDDTAMYYCAKPPYDYDGAWFAYWGQGTLVTVSA VL: DVVMTQTPKFLLVSAGDRVTITCKASQSVSSDVAWYQQKPGQSPKLLIYFASNRYTGVPDRFTGSGYGTDFTFTISTVQAEDLAVYFCQHNYISPFTFGGGTKLEIK
Resp: 37
